- Tested on: leukemia cell line MONO-MAC-1
- assay-details: GI50 and LC50 by NCI method, MONO-MAC-1
- Format: cell-based
- study-conditions: 48 hours, Cell Titer-Blue
metric-name: CC50

// known answers, use as guide
compound: CCCNNC(=O)c1ccc(CNC(=O)c2cc3cnccc3[nH]2)cc1
target: leukemia cell line MONO-MAC-1
metric-name: CC50
experimental-value: 8.68 µM

compound: CCCNNC(=O)c1ccc(CNC(=O)c2cc3ccccc3o2)cc1
target: leukemia cell line MONO-MAC-1
metric-name: CC50
experimental-value: > 10 µM

compound: CCCNNC(=O)c1ccc(CNC(=O)c2cc3ccccc3s2)cc1
target: leukemia cell line MONO-MAC-1
metric-name: CC50
experimental-value: > 10 µM

compound: CCCNNC(=O)c1ccc(CNC(=O)c2cc3ccccc3[nH]2)cc1
target: leukemia cell line MONO-MAC-1
metric-name: CC50
experimental-value: > 10 µM

compound: CCCNNC(=O)c1ccc(CNC(=O)/C=C/c2ccccc2)cc1 [Comparative example 1 LP411/3b, reference compound]
target: leukemia cell line MONO-MAC-1
metric-name: CC50
experimental-value: > 10 µM

Next compound, please.
Challenge: State the recorded CC50 for this entry: CCCNNC(=O)c1ccc(CNC(=O)/C=C/c2cccnc2)cc1
Response given: 9.03 µM

###

- Tested on: leukemia cell line MONO-MAC-1
- assay-details: GI50 and LC50 by NCI method, MONO-MAC-1
- Assay type: cell-based
- study-conditions: 48 hours, Cell Titer-Blue
metric-name: GI50 (µM)
Kindly provide the numeric value in µM only, without the unit symbol.

Reference set (5 entries):
compound: CCCNNC(=O)c1ccc(CNC(=O)/C=C/c2cccnc2)cc1
GI50 (µM): 0.0737
//
compound: CCCNNC(=O)c1ccc(CNC(=O)c2cc3ccccc3o2)cc1
GI50 (µM): 0.0253
//
compound: CCCNNC(=O)c1ccc(CNC(=O)c2cc3ccccc3[nH]2)cc1
GI50 (µM): 0.018
//
compound: CCCNNC(=O)c1ccc(CNC(=O)/C=C/c2ccccc2)cc1 [Comparative example 1 LP411/3b, reference compound]
GI50 (µM): 0.0163
//
compound: CCCNNC(=O)c1ccc(CNC(=O)c2cc3cnccc3[nH]2)cc1
GI50 (µM): 0.0657

Challenge: Dear colleague, I am looking for the recorded GI50 of the following compound: CCCNNC(=O)c1ccc(CNC(=O)c2cc3ccccc3s2)cc1
Response given: 0.0332

###

The following compounds are shown together with reported LC50 (median lethal concentration) values.
- System: leukemia cell line PL21
- assay-details: GI50 and LC50 by NCI method, PL21
- Assay type: cell-based
- study-conditions: PL-21; 48 hours, Cell Titer-Blue

Some entries whose results are on file:
smiles-str: CCCNNC(=O)c1ccc(CNC(=O)c2cc3ccccc3[nH]2)cc1
experimental-value: > 10 µM
//
smiles-str: CCCNNC(=O)c1ccc(CNC(=O)c2cc3ccccc3s2)cc1
experimental-value: > 10 µM

// moving on: another record for LC50 (median lethal concentration)
Challenge: API: value(readout= LC50 (median lethal concentration), system= leukemia cell line PL21, query= CCCNNC(=O)c1ccc(CNC(=O)c2cc3ccccc3o2)cc1 )
Response given: > 10 µM

###

Entries below carry reported IC50 on HDAC3 (Homo sapiens (Human), UniProt O15379).
Sequence (O15379 whole entry, species assumed): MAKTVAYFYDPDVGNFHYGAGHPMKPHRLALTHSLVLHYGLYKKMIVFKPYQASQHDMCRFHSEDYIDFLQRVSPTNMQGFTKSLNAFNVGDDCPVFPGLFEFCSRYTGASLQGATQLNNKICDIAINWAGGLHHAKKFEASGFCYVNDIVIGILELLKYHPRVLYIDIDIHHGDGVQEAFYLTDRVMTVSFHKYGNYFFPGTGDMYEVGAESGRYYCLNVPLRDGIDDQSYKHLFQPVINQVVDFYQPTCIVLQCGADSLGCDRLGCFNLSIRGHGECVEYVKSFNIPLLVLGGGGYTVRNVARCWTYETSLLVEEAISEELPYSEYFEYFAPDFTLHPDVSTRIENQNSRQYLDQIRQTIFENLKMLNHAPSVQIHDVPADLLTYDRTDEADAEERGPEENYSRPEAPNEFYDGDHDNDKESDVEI
Sequence (Q9Y618 395-489 partner, species assumed): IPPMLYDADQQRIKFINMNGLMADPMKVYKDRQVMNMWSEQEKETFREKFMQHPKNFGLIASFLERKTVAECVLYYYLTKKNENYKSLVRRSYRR
Enter your answer as a number in nM; do not include the unit.

Below, 2 molecules whose answers are already recorded.
molecule: CCCNNC(=O)c1ccc(CNC(=O)c2cc3ccccc3s2)cc1 [LEE17]
experimental-value: 0.551
--
molecule: CCCNNC(=O)CCCCNC(=O)/C=C/c1cccnc1 [LEE2]
experimental-value: 112

Challenge: Field request: IC50 | item: Nc1ccccc1NC(=O)CCCCCCCNC(=O)/C=C/c1cccnc1 [LEE8]
Response given: 26.4

src = patent US20240327418A1
